# experimental conditions: cream, 1% ISDN + 1% enhancer
So I've got a bunch of compounds here, and I need their Average Cumulative Amount of ISDN in Micrograms permeating over 51 hours values.
Write the value in Micrograms as a bare number.

Which Average Cumulative Amount of ISDN in Micrograms permeating over 51 hours reading was recorded for the compound CCCCCCCCOC1C(OCCCCCCCC)N(C)C(=O)N1C (stereo not drawn) ? 1175.6

Which Average Cumulative Amount of ISDN in Micrograms permeating over 51 hours reading was recorded for the compound `CCCCN1CCN(CCOCC)C1=O` ? 1091.2

Which Average Cumulative Amount of ISDN in Micrograms permeating over 51 hours reading was recorded for the compound CCCCN1C(=O)N(CCC)C(OCC)C1OCC (stereo not drawn) ? 1057.7

Which Average Cumulative Amount of ISDN in Micrograms permeating over 51 hours reading was recorded for the compound CCCCN1C(=O)OCC1Cc1ccccc1 (stereo not drawn) ? 1147.7

Which Average Cumulative Amount of ISDN in Micrograms permeating over 51 hours reading was recorded for the compound `CCCCCCCCOCCN1CCOC1=O` ? 1185.1

Which Average Cumulative Amount of ISDN in Micrograms permeating over 51 hours reading was recorded for the compound `CCOCCCN1CCOC1=O` ? 1110.9

Which Average Cumulative Amount of ISDN in Micrograms permeating over 51 hours reading was recorded for the compound CCCCCCCCCCC1COC(=O)O1 (stereo not drawn) ? 1174.5

Which Average Cumulative Amount of ISDN in Micrograms permeating over 51 hours reading was recorded for the compound CCCCCCCCCCCC1CN(C)C(=O)N1C (stereo not drawn) ? 1257.0

Which Average Cumulative Amount of ISDN in Micrograms permeating over 51 hours reading was recorded for the compound CCCCCCCCCCCC1CNC(=O)N1 (stereo not drawn) ? 1318.4
